Each recorded value in this set is attributed to patent US10829501B2.

As shown below, each of these compounds has a reported IC50 value.
- Subject of test: ROCK2 (Homo sapiens, UniProt O75116)
- Sequence (O75116 whole entry, species assumed): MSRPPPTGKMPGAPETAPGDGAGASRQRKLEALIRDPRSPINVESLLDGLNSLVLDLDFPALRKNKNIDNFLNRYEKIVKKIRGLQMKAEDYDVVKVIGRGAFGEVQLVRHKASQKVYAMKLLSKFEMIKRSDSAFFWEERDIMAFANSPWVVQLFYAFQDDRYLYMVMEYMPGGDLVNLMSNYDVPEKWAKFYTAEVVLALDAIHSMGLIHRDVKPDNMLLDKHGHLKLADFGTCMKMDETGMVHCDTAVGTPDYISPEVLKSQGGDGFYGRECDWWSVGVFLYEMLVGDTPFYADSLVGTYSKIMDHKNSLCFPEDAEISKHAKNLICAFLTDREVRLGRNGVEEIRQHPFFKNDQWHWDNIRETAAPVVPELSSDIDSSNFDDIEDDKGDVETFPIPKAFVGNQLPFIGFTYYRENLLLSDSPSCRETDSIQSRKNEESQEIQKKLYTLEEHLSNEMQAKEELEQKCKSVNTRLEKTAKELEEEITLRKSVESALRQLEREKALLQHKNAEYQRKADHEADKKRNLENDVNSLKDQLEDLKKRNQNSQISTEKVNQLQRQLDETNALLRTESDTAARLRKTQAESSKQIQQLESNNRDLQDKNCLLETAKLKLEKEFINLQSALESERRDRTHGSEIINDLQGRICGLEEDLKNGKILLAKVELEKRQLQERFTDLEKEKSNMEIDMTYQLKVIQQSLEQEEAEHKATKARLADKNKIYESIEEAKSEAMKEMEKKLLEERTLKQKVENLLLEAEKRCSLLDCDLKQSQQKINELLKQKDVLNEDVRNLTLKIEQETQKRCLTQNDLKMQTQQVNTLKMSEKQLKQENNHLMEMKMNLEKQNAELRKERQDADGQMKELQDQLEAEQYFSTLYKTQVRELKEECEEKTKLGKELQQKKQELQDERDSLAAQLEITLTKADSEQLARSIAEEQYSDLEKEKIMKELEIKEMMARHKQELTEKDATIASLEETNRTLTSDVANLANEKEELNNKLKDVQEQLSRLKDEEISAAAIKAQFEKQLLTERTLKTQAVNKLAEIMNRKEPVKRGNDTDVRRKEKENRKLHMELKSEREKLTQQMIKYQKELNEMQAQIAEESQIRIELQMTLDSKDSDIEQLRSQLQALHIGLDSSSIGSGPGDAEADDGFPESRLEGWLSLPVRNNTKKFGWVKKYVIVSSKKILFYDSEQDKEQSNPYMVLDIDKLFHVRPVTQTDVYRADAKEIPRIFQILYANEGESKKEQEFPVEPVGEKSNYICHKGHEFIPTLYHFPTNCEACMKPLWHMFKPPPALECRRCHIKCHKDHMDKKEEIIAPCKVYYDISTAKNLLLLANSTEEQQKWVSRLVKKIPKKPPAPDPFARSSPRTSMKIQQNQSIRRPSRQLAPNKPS
- Assay procedure: ROCK2 kinase inhibition assay (LABCHIP 3000 Reader, FITC peptide substrate);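 also: rho kinase reaction read by separating phosphorylated from unphosphorylated peptide on chip, with inhibition of kinase activity computed per concentration across a dose-response series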

NC(=O)c1cccnc1O[C@H]1CC2(C[C@H](NC(=O)c3cnn4cc(OCC(O)C(F)(F)F)ccc34)C2)C1 (stereo partly shown)
< 5 nM
CC(C)(O)COc1ccc2c(C(=O)NC3CC4(C3)CC(Oc3cc(-c5ccc(CN6CCOCC6)s5)ccc3C(N)=O)C4)cnn2c1 (stereo not shown)
5 to 50 nM
CC(C)(O)COc1ccc2c(C(=O)NC3CC4(C3)CC(Oc3cc(-c5ccc(F)c(-c6nnn[nH]6)c5)ccc3C(N)=O)C4)cnn2c1 (stereo not shown)
5 to 50 nM

Next:
// query Please provide the recorded IC50 for Cn1cc(-c2ccn3c(C(=O)N[C@H]4CC5(C4)C[C@H](Oc4ccccc4C(N)=O)C5)cnc3c2)cn1 (stereo partly shown) , tested on ROCK2 (Homo sapiens, UniProt O75116).
// result 5 to 50 nM

====

- Subject of test: ROCK2 (Homo sapiens)
- Assay procedure: ROCK2 kinase inhibition assay (LABCHIP 3000 Reader, FITC peptide substrate)
Structures can show the parent of a compound that is named as a salt.
Metric: IC50

// query What does the record list as IC50 for [H][C@]1(Oc2ncccc2C(N)=O)C[C@@]2(C[C@H](NC(=O)c3nn(C(C)(C)C(N)=O)c4cc(-c5cnn(C)c5)ccc34)C2)C1 (stereo partly shown) [Example 408, TFA] ?
// result 5 to 50 nM

// query Dear colleague, I am looking for the recorded IC50 of the following molecule: NC(=O)c1cccnc1O[C@H]1CC2(C[C@H](NC(=O)c3ccccc3-c3nc4ccccc4[nH]3)C2)C1 (stereo partly shown) [Example 140]
// result 250 to 2500 nM

// query State the recorded IC50 for this entry: NC(=O)c1ccccc1O[C@H]1CC2(C[C@H](NC(=O)c3cnc4cc(OCCC(F)(F)F)ccn34)C2)C1 (stereo partly shown) [Example 18]
// result < 5 nM

// query Endpoint output: IC50 of NC(=O)c1cccnc1OC1CC2(CC(NC(=O)c3nnc4cc(N5CCOCC5)ccn34)C2)C1 (stereo not shown) [Example 179] . Value?
// result 5 to 50 nM

// query State the recorded IC50 for this entry: Cc1nc(-c2ccc(C(F)(F)F)cc2)sc1-c1cc(C#N)cc(C(=O)N[C@H]2CC3(C2)C[C@H](Oc2ncccc2C(N)=O)C3)c1 (stereo partly shown) [Example 188]
// result 250 to 2500 nM

// query Look up IC50: Cc1cc(C(=O)N[C@H]2CC3(C2)C[C@H](Oc2ncccc2C(N)=O)C3)n(C)n1 (stereo partly shown) [Example 83]
// result 250 to 2500 nM

// query # query: IC50 of entry NC(=O)c1ccccc1O[C@H]1CC2(C[C@H](NC(=O)N3CCc4ccccc43)C2)C1 (stereo partly shown) [Example 37]
// result 50 to 250 nM

====

- Subject of test: ROCK2 (Homo sapiens)
- Assay procedure: ROCK2 kinase inhibition assay (LABCHIP 3000 Reader, FITC peptide substrate)
Metric: IC50

Below: 2 compounds and their reported IC50.
[H][C@]1(Oc2ncccc2C(N)=O)C[C@@]2(C[C@H](NC(=O)c3cnc4cc(-c5ccc(=O)n(C)c5)ccn34)C2)C1 (stereo partly drawn)
< 5 nM
[2H]C([2H])([2H])n1nc(C(=O)N[C@H]2CC3(C2)C[C@H](Oc2ncccc2C(N)=O)C3)c2ccc(F)cc21 (stereo partly drawn)
5 to 50 nM

// query May I ask what IC50 has been recorded for CC(C)(O)COc1ccc2c(C(=O)NC3CC4(C3)CC(Oc3cc(CCCN5CCOCC5)ccc3C(N)=O)C4)cnn2c1C1CC1 (stereo not drawn) ?
// result 5 to 50 nM
